For each entry below, report its pKi value.
# system: adenosine A2 receptor (Rattus norvegicus, UniProt P30543)
# Construct: tissue Charles River (animals)
# Sequence (P30543 whole entry): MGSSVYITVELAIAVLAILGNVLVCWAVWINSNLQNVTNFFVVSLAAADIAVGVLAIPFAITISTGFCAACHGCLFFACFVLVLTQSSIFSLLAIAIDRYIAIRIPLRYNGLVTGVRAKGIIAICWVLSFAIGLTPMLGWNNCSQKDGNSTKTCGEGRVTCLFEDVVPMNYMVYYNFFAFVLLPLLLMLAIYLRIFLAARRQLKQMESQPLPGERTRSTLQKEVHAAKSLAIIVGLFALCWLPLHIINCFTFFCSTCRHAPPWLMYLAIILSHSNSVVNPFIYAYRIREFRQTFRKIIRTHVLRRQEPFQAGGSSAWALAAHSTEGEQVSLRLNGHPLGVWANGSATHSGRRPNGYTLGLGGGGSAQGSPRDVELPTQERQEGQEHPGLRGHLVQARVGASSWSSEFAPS
# experimental.protocol: A2 receptor affinity: displacement of [3H]NECA binding in rat brain striatum membranes
# condition.info: Table 1
Just so you know, pKi here is -log10 of the concentration in molar units; reply with that number alone.

### Prompt I have this compound here, CCCn1c(=O)c2[nH]c([C@H](CC)c3ccccc3)nc2n(CCC)c1=O , and I need its recorded pKi.
### Response 5.45

### Prompt Returns the measured pKi for the input compound. Input: CCCn1c(=O)c2[nH]c(C3Cc4ccccc4C3)nc2n(CCC)c1=O (racemic)
### Response 5.08

### Prompt Reported pKi, compound CCCn1c(=O)c2nc(C(CO)Cc3ccccc3)[nH]c2n(CCC)c1=O (racemic) : ____
### Response 4.89

### Prompt For the compound CCCn1c(=O)c2[nH]c([C@@H](CC)c3ccccc3)nc2n(CCC)c1=O , what pKi is on record?
### Response 6.07

### Prompt Param item = CCCn1c(=O)c2nc(C(CC)Cc3ccccc3)[nH]c2n(CCC)c1=O (racemic) ; retrieve measured pKi.
### Response 5.91

### Prompt Quick one: pKi of CCCn1c(=O)c2nc(C(C)c3ccccc3)[nH]c2n(CCC)c1=O (racemic) ?
### Response 5.31

### Prompt What value of pKi has been reported for the following compound? CCCn1c(=O)c2nc([C@H](C)c3ccccc3)[nH]c2n(CCC)c1=O
### Response 5.37

### Prompt # pKi lookup, item CCCn1c(=O)c2nc([C@@H](C)c3ccccc3)[nH]c2n(CCC)c1=O
### Response 4.89

* * *

# system: UniProtKB P25099
# Sequence (P25099 whole entry): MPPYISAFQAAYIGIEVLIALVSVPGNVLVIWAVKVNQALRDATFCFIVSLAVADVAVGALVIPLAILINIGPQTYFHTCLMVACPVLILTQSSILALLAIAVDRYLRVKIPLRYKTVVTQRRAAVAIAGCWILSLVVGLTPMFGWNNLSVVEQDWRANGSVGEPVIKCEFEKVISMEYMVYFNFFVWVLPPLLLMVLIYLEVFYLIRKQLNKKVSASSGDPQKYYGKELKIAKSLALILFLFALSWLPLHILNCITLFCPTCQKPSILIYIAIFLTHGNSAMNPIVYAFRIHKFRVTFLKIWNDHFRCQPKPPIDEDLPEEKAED
# experimental.protocol: biochemical
assay.readout: Ki (nM)
Number only, in nM; omit the unit.

### Prompt Form field: reported Ki of CCCn1c(=O)c2[nH]c([C@@H](CC)c3ccccc3)nc2n(CCC)c1=O
### Response 60.7

Cited source for all entries: patent US5840729A
